Tested on: Phytophthora infestans
Assay: whole plant or invertebrate
Format: in vivo
Details: Phytophthora infestans, in Solanum lycopersicum, read-out: Test 1 Measured preventive value, component (b) alone, 2 ppm
Lab note: compare pest or weed control at 2 ppm with 30%, writing rule met if less and rule not met if equal or more.

N#Cc1c(Cl)c(Cl)c(Cl)c(C#N)c1Cl
rule not met

Lookup: Criterion: pest or weed control at 2 ppm strictly below 30%. Is it met by Cc1ccc(-c2c(Cl)nc(C#N)n2S(=O)(=O)N(C)C)cc1 ?
Found: rule not met

Lookup: Strictly below 30%: is that where pest or weed control at 2 ppm of CCC(C)(NC(=O)c1cc(Cl)c(C)c(Cl)c1)C(=O)CCl (stereo not drawn) [Zoxamide] sits?
Found: rule not met

Lookup: Lab note: pest or weed control at 2 ppm threshold 30%. Does this compound come in strictly under it? COc1ccc(C(=CC(=O)N2CCOCC2)c2ccc(Cl)cc2)cc1OC
Found: rule met

Lookup: Hello, I'm reviewing records and need to know if pest or weed control at 2 ppm of O=C1C2CC=CCC2C(=O)N1SC(Cl)(Cl)Cl (stereo not drawn) is below 30%. Could you check?
Found: rule met

Lookup: Just wondering, is pest or weed control at 2 ppm of CCNC(=O)NC(=O)/C(C#N)=N/OC below 30%?
Found: rule not met
